SYSTEM TESTED: VEGFR-2 (Homo sapiens)
Sequence (P35968 20-1356): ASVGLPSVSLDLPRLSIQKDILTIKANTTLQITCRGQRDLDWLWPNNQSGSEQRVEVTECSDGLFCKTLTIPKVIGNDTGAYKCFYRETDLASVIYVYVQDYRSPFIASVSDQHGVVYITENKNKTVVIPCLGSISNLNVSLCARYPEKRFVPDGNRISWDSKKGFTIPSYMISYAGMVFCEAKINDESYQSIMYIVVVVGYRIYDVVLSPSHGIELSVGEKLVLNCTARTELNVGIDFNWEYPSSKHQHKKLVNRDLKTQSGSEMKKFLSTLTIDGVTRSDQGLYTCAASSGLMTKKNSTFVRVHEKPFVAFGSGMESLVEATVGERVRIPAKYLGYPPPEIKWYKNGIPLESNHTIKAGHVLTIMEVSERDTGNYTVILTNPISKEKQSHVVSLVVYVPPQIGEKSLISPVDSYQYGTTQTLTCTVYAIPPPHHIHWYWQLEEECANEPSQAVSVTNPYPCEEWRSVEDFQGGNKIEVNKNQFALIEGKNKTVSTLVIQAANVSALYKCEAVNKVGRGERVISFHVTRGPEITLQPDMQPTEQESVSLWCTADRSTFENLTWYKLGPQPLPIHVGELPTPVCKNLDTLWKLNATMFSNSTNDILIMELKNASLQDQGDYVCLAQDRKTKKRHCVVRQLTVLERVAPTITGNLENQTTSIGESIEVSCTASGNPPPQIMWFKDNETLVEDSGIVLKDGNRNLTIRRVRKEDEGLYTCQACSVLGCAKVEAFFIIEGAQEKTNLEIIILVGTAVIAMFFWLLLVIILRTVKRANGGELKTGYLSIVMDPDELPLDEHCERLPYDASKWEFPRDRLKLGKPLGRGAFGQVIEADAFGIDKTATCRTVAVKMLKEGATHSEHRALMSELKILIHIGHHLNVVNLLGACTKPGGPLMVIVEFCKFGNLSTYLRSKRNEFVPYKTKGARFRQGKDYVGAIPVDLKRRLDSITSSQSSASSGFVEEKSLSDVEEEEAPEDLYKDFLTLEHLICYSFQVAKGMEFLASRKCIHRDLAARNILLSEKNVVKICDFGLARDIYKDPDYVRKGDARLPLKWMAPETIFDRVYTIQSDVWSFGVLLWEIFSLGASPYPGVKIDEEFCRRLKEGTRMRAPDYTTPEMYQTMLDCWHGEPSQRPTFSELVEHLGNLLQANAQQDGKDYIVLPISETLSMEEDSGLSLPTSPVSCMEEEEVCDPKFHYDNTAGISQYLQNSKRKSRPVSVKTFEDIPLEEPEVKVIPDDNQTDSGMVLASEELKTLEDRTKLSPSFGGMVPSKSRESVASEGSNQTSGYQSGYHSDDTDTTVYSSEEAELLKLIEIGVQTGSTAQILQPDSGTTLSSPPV

COMPOUND | SYSTEM TESTED | UNIT TEXT | IC50
CCOC(=O)C1=C(C(F)(F)F)NC2=C(C(=O)CC(C)(C)C2)C1c1ccc(S(=O)(=O)c2ccccc2)cc1 (stereo not shown) | VEGFR-2 (Homo sapiens) | nM | 1.05

* * *

SYSTEM TESTED: PDGFR-α
ASSAY DETAILS: In vitro kinase inhibition assay, PDGFR-α
EXPERIMENTAL SETUP: read-out: PDGFR-α IC50
The entries below come with measured IC50 values attached.

MOLECULE | SYSTEM TESTED | UNIT TEXT | IC50
CCOC(=O)C1=C(C(F)(F)F)NC2=C(C(=O)CC(C)(C)C2)C1c1ccc(S(=O)(=O)c2ccccc2)cc1 (centres unmarked) [Compound 4b] | PDGFR-α | pM | 210
Cc1ccc(S(=O)(=O)c2ccc(C3C(C(=O)c4ccccc4)=C(N)NC4=C3C(=O)CC(C)(C)C4)cc2)cc1 (centres unmarked) [Compound 4j] | PDGFR-α | pM | 70
